Listed below: MIC90 values for each entry.
Tested on: clinically isolated Enterococcus faecium
TEST_SUMMARY: In vitro antibacterial activity against clinical isolates, Experiment 2
Format: cell-based
MEASUREMENT_PARAMETERS: 25 clinical strains E. faecium, 90% of strains, read-out: MIC90
Structures can show the parent of a compound that is named as a salt.
Put your answer as a value accompanied by its unit after it.

Recorded MIC90, per entry:
* COCC1CN(c2c(F)cc3c(=O)c(C(=O)O)c4scc5n4c3c2N(C)C5)CCN1C (stereo not drawn) [Compound (J), hydrochloride] | 12.5 µg/mL
* CCOCC1CN(c2c(F)cc3c(=O)c(C(=O)O)c4scc5n4c3c2N(C)C5)CCO1 (stereo not drawn) | 12.5 µg/mL
* COC[C@H]1CN(c2c(F)cc3c(=O)c(C(=O)O)c4scc5n4c3c2N(C)C5)CCO1 | 12.5 µg/mL

MIC90 on clinically isolated Enterococcus faecium for CN1Cc2csc3c(C(=O)O)c(=O)c4cc(F)c(N5CCN(C)C(CF)C5)c1c4n23 (stereo not drawn) [Compound (K), hydrochloride] is 12.5 µg/mL

MIC90 on clinically isolated Enterococcus faecium for CN1Cc2csc3c(C(=O)O)c(=O)c4cc(F)c(N5CCC(O)CC5)c1c4n23 is 3.13 µg/mL

MIC90 on clinically isolated Enterococcus faecium for CC1CN(c2c(F)cc3c(=O)c(C(=O)O)c4scc5n4c3c2N(C)C5)CCO1 (stereo not drawn) is 3.13 µg/mL

MIC90 on clinically isolated Enterococcus faecium for CN1Cc2csc3c(C(=O)O)c(=O)c4cc(F)c(N5CCC(N(C)C)CC5)c1c4n23 is 12.5 µg/mL

MIC90 on clinically isolated Enterococcus faecium for CN1CCN(c2c(F)cc3c(=O)c(C(=O)O)c4scc5n4c3c2OC5)CC1 [Compound (Y), hydrochloride, reference compound] is 6.52 µg/mL

MIC90 on clinically isolated Enterococcus faecium for CN1Cc2csc3c(C(=O)O)c(=O)c4cc(F)c(N5CCC(=O)CC5)c1c4n23 is 3.13 µg/mL

----------
System: Staphylococcus epidermidis IAM 1296
Counter-ions that a name gives are not always drawn.
REPORTED_PROPERTY: MIC
Put your answer as a value accompanied by its unit after it.

Recorded MIC, per entry:
* CN1CCN(c2c(F)cc3c(=O)c(C(=O)O)c4scc5n4c3c2OC5)CC1 [Compound (Y), hydrochloride, reference compound] | 0.39 mg/L
* CN1Cc2csc3c(C(=O)O)c(=O)c4cc(F)c(N5CCC(N(C)C)CC5)c1c4n23 | 0.2 mg/L

// MIC lookup, molecule = COCC1CN(c2c(F)cc3c(=O)c(C(=O)O)c4scc5n4c3c2N(C)C5)CCN1C (centres unmarked) [Compound (J), hydrochloride] , result: 0.2 mg/L

// MIC lookup, molecule = COCC1CN(c2c(F)cc3c(=O)c(C(=O)O)c4scc5n4c3c2N(C)C5)CCO1 (centres unmarked) [Compound (E)] , result: 0.05 mg/L

// MIC lookup, molecule = COC[C@@H]1CN(c2c(F)cc3c(=O)c(C(=O)O)c4scc5n4c3c2N(C)C5)CCO1 , result: 0.05 mg/L

// MIC lookup, molecule = CC1CN(c2c(F)cc3c(=O)c(C(=O)O)c4scc5n4c3c2N(C)C5)CCO1 (centres unmarked) , result: 0.05 mg/L

// MIC lookup, molecule = COC[C@H]1CN(c2c(F)cc3c(=O)c(C(=O)O)c4scc5n4c3c2N(C)C5)CCO1 , result: 0.05 mg/L

// MIC lookup, molecule = CN1Cc2csc3c(C(=O)O)c(=O)c4cc(F)c(N5CCN6CCOC[C@H]6C5)c1c4n23 , result: 0.05 mg/L

// MIC lookup, molecule = CN1Cc2csc3c(C(=O)O)c(=O)c4cc(F)c(N5CCO[C@@H](CO)C5)c1c4n23 , result: 0.05 mg/L

// MIC lookup, molecule = CN1Cc2csc3c(C(=O)O)c(=O)c4cc(F)c(N5CCOC(CO)C5)c1c4n23 (centres unmarked) , result: 0.05 mg/L

// MIC lookup, molecule = CCOCC1CN(c2c(F)cc3c(=O)c(C(=O)O)c4scc5n4c3c2N(C)C5)CCO1 (centres unmarked) , result: 0.1 mg/L

// MIC lookup, molecule = CN1Cc2csc3c(C(=O)O)c(=O)c4cc(F)c(N5CCC(O)CC5)c1c4n23 , result: 0.013 mg/L

// MIC lookup, molecule = CN1Cc2csc3c(C(=O)O)c(=O)c4cc(F)c(N5CCO[C@H](CO)C5)c1c4n23 , result: 0.05 mg/L

// MIC lookup, molecule = CN1Cc2csc3c(C(=O)O)c(=O)c4cc(F)c(N5CCOC(CF)C5)c1c4n23 (centres unmarked) , result: 0.025 mg/L

----------
System: clinically isolated Staphylococcus aureus
TEST_SUMMARY: In vitro antibacterial activity against clinical isolates, Experiment 2
Format: cell-based
MEASUREMENT_PARAMETERS: 25 clinical strains S. aureus incl. 16 methicillin resistant
Counter-ions that a name gives are not always drawn.
REPORTED_PROPERTY: MIC

- CN1Cc2csc3c(C(=O)O)c(=O)c4cc(F)c(N5CCC(=O)CC5)c1c4n23 [Compound (G)]: 0.006 to 0.39 µg/mL

// MIC lookup, compound = COC[C@@H]1CN(c2c(F)cc3c(=O)c(C(=O)O)c4scc5n4c3c2N(C)C5)CCO1 [Compound (O)] , result: 0.006 to 0.78 µg/mL

// MIC lookup, compound = COCC1CN(c2c(F)cc3c(=O)c(C(=O)O)c4scc5n4c3c2N(C)C5)CCN1C (stereo not shown) [Compound (J), hydrochloride] , result: 0.05 to 6.25 µg/mL

// MIC lookup, compound = COC[C@H]1CN(c2c(F)cc3c(=O)c(C(=O)O)c4scc5n4c3c2N(C)C5)CCO1 [Compound (P)] , result: 0.006 to 0.78 µg/mL

----------
Test system: Escherichia coli NIHJ JC-2
Listed below: MIC values for each entry.
Put your answer as a value accompanied by its unit after it.

Recorded MIC, per entry:
• CN1Cc2csc3c(C(=O)O)c(=O)c4cc(F)c(N5CCO[C@@H](CO)C5)c1c4n23 = 0.2 µg/mL
• CC1COc2c(N3CCN(C)CC3)c(F)cc3c(=O)c(C(=O)O)cn1c23 (centres unmarked) [Compound (X), reference compound] = 0.1 µg/mL
• COC[C@H]1CN(c2c(F)cc3c(=O)c(C(=O)O)c4scc5n4c3c2N(C)C5)CCO1 = 0.2 µg/mL

// moving on: another record for MIC
MIC on Escherichia coli NIHJ JC-2 for CN1Cc2csc3c(C(=O)O)c(=O)c4cc(F)c(N5CCC(=O)CC5)c1c4n23 is 0.1 µg/mL

----------
Tested on: clinically isolated Staphylococcus aureus
TEST_SUMMARY: In vitro antibacterial activity against clinical isolates, Experiment 2
Format: cell-based
MEASUREMENT_PARAMETERS: 25 clinical strains S. aureus incl. 16 methicillin resistant, 50% of strains, read-out: MIC50
Counter-ions that a name gives are not always drawn.
Listed below: MIC50 values for each entry.
Write it as a number; the unit µg/mL goes unstated.

Recorded MIC50, per entry:
• CCOCC1CN(c2c(F)cc3c(=O)c(C(=O)O)c4scc5n4c3c2N(C)C5)CCO1 (centres unmarked) = 0.013
• COCC1CN(c2c(F)cc3c(=O)c(C(=O)O)c4scc5n4c3c2N(C)C5)CCN1C (centres unmarked) [Compound (J), hydrochloride] = 0.1
• CN1CCN(c2c(F)cc3c(=O)c(C(=O)O)c4scc5n4c3c2OC5)CC1 [Compound (Y), hydrochloride, reference compound] = 0.2
• CN1Cc2csc3c(C(=O)O)c(=O)c4cc(F)c(N5CCOC(CO)C5)c1c4n23 (centres unmarked) = 0.013

MIC50 on clinically isolated Staphylococcus aureus for CN1Cc2csc3c(C(=O)O)c(=O)c4cc(F)c(N5CCO[C@@H](CO)C5)c1c4n23 is 0.013

MIC50 on clinically isolated Staphylococcus aureus for CN1Cc2csc3c(C(=O)O)c(=O)c4cc(F)c(N5CCOC(CCl)C5)c1c4n23 (centres unmarked) is 0.013

MIC50 on clinically isolated Staphylococcus aureus for CN1Cc2csc3c(C(=O)O)c(=O)c4cc(F)c(N5CCOC(CF)C5)c1c4n23 (centres unmarked) is 0.013

----------
Tested on: Streptococcus pneumoniae IID 554
TEST_SUMMARY: MIC, Experiment 1
Assay type: cell-based
MEASUREMENT_PARAMETERS: IID554, S. pneumoniae IID 554, Gram +, agar with 5% defibrinated horse blood, read-out: Min. inhib. concentr. (MIC)
REPORTED_PROPERTY: MIC (µg/mL)
Write it as a number; the unit µg/mL goes unstated.

// MIC lookup, compound = CC1CN(c2c(F)cc3c(=O)c(C(=O)O)c4scc5n4c3c2N(C)C5)CCO1 (stereo not drawn) [Compound (A)] , result: 0.05

// MIC lookup, compound = CN1Cc2csc3c(C(=O)O)c(=O)c4cc(F)c(N5CCC(O)CC5)c1c4n23 [Compound (L)] , result: 0.05

// MIC lookup, compound = CN1Cc2csc3c(C(=O)O)c(=O)c4cc(F)c(N5CCO[C@H](CO)C5)c1c4n23 [Compound (M)] , result: 0.05
